Just for reference, patent US20240425479A1 is where these values come from.

- target.entity: Lck (h) (Homo sapiens, UniProt P06239)
- Sequence (P06239 whole entry): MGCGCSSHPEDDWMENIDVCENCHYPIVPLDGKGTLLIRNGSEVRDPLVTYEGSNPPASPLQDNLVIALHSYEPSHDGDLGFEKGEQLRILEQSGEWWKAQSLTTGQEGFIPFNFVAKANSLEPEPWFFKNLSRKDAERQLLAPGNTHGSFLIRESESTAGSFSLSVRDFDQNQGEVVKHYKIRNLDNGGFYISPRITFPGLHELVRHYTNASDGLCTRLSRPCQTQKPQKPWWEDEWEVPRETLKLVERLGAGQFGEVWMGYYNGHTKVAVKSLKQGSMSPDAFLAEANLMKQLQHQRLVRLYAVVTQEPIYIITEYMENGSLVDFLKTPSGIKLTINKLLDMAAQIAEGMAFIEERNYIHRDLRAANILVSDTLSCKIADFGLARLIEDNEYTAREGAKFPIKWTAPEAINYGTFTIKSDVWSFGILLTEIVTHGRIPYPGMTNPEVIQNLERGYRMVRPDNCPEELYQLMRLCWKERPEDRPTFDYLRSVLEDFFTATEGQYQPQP
- experimental.protocol: Lck human STE kinase enzymatic radiometric assay
- Format: biochemical
- test.settings: read-out: Lck IC50 nM Range
Let's look at some compounds and their measured IC50.

Consider the worked cases shown below.
1) CC(C)N1CCN(c2ccc(-c3nc(-c4cc(F)c5c(=O)[nH]ccc5c4)c(N)nc3F)cc2)CC1; 101 to 1000 nM
2) CC(C)N1CCN(c2ccc(-c3nc(-c4ccc5c(=O)[nH]cnc5c4)c(N)nc3F)cc2)CC1; > 1000 nM
3) CCN1CCN(c2ccc(-c3nc(-c4ccc5c(=O)[nH]ccc5c4)c(N)nc3F)cc2)CC1; > 1000 nM
4) Nc1nc(F)c(-c2ccc(N3CCOCC3)c(CN3CCC3)c2)nc1-c1cc2c(cc1F)C(=O)NCC2; > 1000 nM
5) C[C@@H]1CN(c2ccc(-c3nc(-c4ccc5c(c4)C(F)(F)CNC5=O)c(N)nc3F)cc2CN(C)C)C[C@H](C)O1; > 1000 nM
6) CC(C1CC1)N1CCN(c2ccc(-c3nc(-c4cc(F)c5c(c4)CCNC5=O)c(N)nc3F)cc2)CC1 (single isomer, unassigned) [Example I-30]; 101 to 1000 nM
7) CC(C)N1CCN(c2ccc(-c3nc(-c4cc(F)c5c(=O)[nH]cc(F)c5c4)c(N)nc3F)cc2)CC1; > 1000 nM
8) CN(C)Cc1cc(-c2nc(-c3ccc4c(=O)[nH]cc(Cl)c4c3)c(N)nc2F)ccc1C1CCOCC1; > 1000 nM
9) Cc1[nH]c(=O)c2ccc(-c3nc(-c4ccc(N5CCN(C(C)C)CC5)cc4)c(F)nc3N)cc2c1F; > 1000 nM
10) Cc1nc2cc(-c3nc(-c4ccc(N5CCN(C(C)C)CC5)cc4)c(F)nc3N)ccc2c(=O)[nH]1; > 1000 nM

Name the recorded IC50 for `Nc1nc(F)c(-c2ccc(N3CCOCC3)cc2)nc1-c1ccc2c(c1)CCNC2=O` . > 1000 nM

Given the compound `CN(C)Cc1cc(-c2nc(-c3cc(F)c4c(=O)[nH]cc(F)c4c3)c(N)nc2F)ccc1C1CCOCC1` , what is its reported IC50? > 1000 nM

# query: IC50 of entry `CN(C)Cc1cc(-c2nc(-c3ccc4c(c3)CCNC4=O)c(N)nc2F)ccc1N1CCOCC1` > 1000 nM

// lookup IC50 for `Nc1nc(F)c(-c2ccc(N3CCN(CC4CC4)CC3)cc2)nc1-c1cc(F)c2c(=O)[nH]ccc2c1` 101 to 1000 nM

What does the record list as IC50 for `Cc1nc2cc(-c3nc(-c4ccc(C5CCOCC5)c(CN(C)C)c4)c(F)nc3N)cc(F)c2c(=O)[nH]1` ? > 1000 nM

====

- target.entity: Recombinant (1-346) HPK1 (h) (Homo sapiens)
- Construct: Recombinant (1-346) HPK1 (h) is incubated with 8 mM MOPS pH 7.0
- Sequence (Q92918 1-346): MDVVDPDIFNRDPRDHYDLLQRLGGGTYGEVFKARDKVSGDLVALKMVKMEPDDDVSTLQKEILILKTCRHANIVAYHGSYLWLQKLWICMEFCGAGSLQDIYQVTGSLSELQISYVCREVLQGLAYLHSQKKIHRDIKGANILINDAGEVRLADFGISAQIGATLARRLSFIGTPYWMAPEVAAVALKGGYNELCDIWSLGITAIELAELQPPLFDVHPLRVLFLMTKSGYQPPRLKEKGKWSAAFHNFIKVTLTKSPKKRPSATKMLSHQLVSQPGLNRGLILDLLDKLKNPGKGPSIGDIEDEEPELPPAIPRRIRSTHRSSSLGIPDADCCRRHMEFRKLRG
- experimental.protocol: HPK1 human STE kinase enzymatic radiometric assay
- Type: biochemical
- test.settings: read-out: HPK1 IC50 nM Range
Where a name gives a salt, the structure may show the parent alone.
readout.name: IC50

1) CN(C)Cc1cc(-c2nc(-c3ccc4c(c3)CCNC4=O)c(N)nc2F)ccc1OCC1CCOCC1 [Example I-178]; 0.1 to 10 nM
2) Nc1nc(F)c(-c2ccc(N3CCOCC3)cn2)nc1-c1ccc2c(c1)CCNC2=O [Example I-201]; 11 to 100 nM
3) COCCN(C)Cc1cc(-c2nc(-c3ccc4c(c3)CCNC4=O)c(N)nc2F)ccc1C1CCOCC1 [Example I-174]; 0.1 to 10 nM
4) CN1CCN(c2ccc(-c3nc(-c4cc5c(cc4F)C(=O)NCC5)c(N)nc3F)cc2)CC1 [Example I-54]; 0.1 to 10 nM
5) CC(C)N1CCN(c2ccc(-c3nc(-c4cc5c(cc4F)C(=O)NCC5)c(N)nc3F)cc2)[C@H](C)C1 [Example I-51]; 0.1 to 10 nM

Quick one: IC50 of CC(C)N1C[C@H]2C[C@@]2(c2ccc(-c3nc(-c4cc(F)c5c(c4)CCNC5=O)c(N)nc3F)cc2)C1 [Example I-15, formate] ? 0.1 to 10 nM

Name the reported IC50 value associated with the compound CN(C)[C@@H]1CCOc2ccc(-c3nc(-c4cc5c(cc4F)C(=O)NCC5)c(N)nc3F)cc21 [Example I-288] 11 to 100 nM

Would you mind telling me what IC50 value was observed for CC(C1CC1)N1CCN(c2ccc(-c3nc(-c4cc(F)c5c(c4)CCNC5=O)c(N)nc3F)cc2)CC1 (single isomer, unassigned) [Example I-29] ? 0.1 to 10 nM

Could you tell me which IC50 is on file for Cc1c[nH]c(=O)c2ccc(-c3nc(-c4cc(CN(C)C)c(N5CCOCC5)cc4F)c(F)nc3N)cc12 [Example I-261] ? 101 to 1000 nM
